Listed here are compounds together with their documented IC50.
biological target: KRAS G12S (Homo sapiens, UniProt P01116, G12S); assay: HTRF KRAS-SOS1 interaction assay, KRAS G12S; settings: binned ≤2 μM / >2 μM, read-out: Inhibition of KRAS G12S (IC50)
Sequence (P01116 1-188 isoform P01116-2 G12S): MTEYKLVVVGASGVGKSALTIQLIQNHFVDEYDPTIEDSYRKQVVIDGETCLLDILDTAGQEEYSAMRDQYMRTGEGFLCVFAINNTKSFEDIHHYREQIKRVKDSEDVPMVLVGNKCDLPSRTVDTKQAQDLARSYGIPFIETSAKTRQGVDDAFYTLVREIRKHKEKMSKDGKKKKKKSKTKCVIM
Readout: IC50

{"Compound": "N#Cc1c(N)sc2c(F)ccc(-c3c(C(F)(F)F)c4c5c(nc(OC[C@@]67CCCN6C[C@H](F)C7)nc5c3F)N([C@H](CCC3CCC3)c3cccnc3N)CCO4)c12 (single isomer, unassigned)", "Readout": "IC50", "Recorded Result": "≤ 2000 nM"}
{"Compound": "C[C@@H]1COCCN1CC1(COc2nc3c4c(c(C(F)(F)F)c(-c5ccc(F)c6sc(N)c(C#N)c56)c(F)c4n2)OCCN3[C@H](C)c2cccnc2N)CC1 (single isomer, unassigned) [Compound 608]", "Readout": "IC50", "Recorded Result": "≤ 2000 nM"}

====

Biological target: KRAS G12D (Homo sapiens, UniProt P01116, G12D)
Sequence (P01116 1-188 isoform P01116-2 G12D): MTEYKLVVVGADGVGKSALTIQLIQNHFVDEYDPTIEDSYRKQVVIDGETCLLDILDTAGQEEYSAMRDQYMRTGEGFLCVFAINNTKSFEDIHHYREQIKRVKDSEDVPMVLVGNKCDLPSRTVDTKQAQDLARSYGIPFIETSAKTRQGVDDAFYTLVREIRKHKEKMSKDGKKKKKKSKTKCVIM
Assay: HTRF KRAS-SOS1 interaction assay, KRAS G12D
Conditions: binned ≤2 μM / >2 μM, read-out: Inhibition of KRAS G12D (IC50)
From the text: This assay can be also used to assess a selective inhibition or reduction of signaling output of a mutant Ras protein relative to a wildtype, or relative to a different mutant Ras protein. For example, the equilibrium interaction of wildtype KRAS or K-Ras mutant (e.g., wildtype or a mutant thereof) with SOS1 (e.g., hSOS1) can be assessed as a proxy or an indication for the ability of a subject compound to bind and inhibit Ras protein. […]
pIC50: −log10 of the molar value.

{"Compound": "Cc1cnc(N)c([C@@H](C)N2CCOc3c(C(F)(F)F)c(-c4ccc(F)c5sc(N)c(C#N)c45)c(F)c4nc(OC[C@@]56CCCN5C[C@H](F)C6)nc2c34)c1 (single isomer, unassigned) [Compound 796]", "pIC50": "≥ 5.70"}
{"Compound": "C[C@H](c1cncnc1N)N1CCOc2c(C(F)(F)F)c(-c3ccc(F)c4sc(N)c(C#N)c34)c(F)c3nc(OCC4(CN5CCC(F)CC5)CC4)nc1c23 [Compound 908]", "pIC50": "≥ 5.70"}
{"Compound": "N#Cc1c(N)sc2c(F)ccc(-c3c(C(F)(F)F)c4c5c(nc(OC[C@@]67CCCN6C[C@@]6(CC6(F)F)C7)nc5c3F)N([C@H](CCC(F)(F)F)c3cccnc3N)CCO4)c12 [Compound 883]", "pIC50": "≥ 5.70"}
{"Compound": "COCC[C@H](c1cccnc1N)N1CCOc2c(C(F)(F)F)c(-c3ccc(F)c4sc(N)c(C#N)c34)c(F)c3nc(OC[C@@]45CCCN4C[C@H](F)C5)nc1c23 [Compound 782]", "pIC50": "≥ 5.70"}
{"Compound": "CCO/N=C/C1CN2CCC[C@@]2(COc2nc3c4c(c(Cl)c(-c5ccc(F)c6sc(N)c(C#N)c56)c(F)c4n2)OCCN3[C@H](C)c2cccnc2N)C1 (mixture of isomers) [Compound 711]", "pIC50": "≥ 5.70"}

====

biological target: KRAS WT (Homo sapiens); test: HTRF KRAS-SOS1 interaction assay, wildtype KRAS; conditions: binned ≤2 μM / >2 μM, read-out: Inhibition of KRAS WT (IC50)
Sequence (P01116 1-188 isoform P01116-2): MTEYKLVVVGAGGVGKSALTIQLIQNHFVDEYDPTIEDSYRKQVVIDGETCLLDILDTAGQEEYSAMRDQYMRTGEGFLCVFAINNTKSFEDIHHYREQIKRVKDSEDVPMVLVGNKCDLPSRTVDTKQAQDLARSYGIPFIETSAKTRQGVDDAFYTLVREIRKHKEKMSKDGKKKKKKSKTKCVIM
pIC50: −log10 of the molar value.

{"Molecule": "COc1ccc([C@@H](C)N2CCOc3c(Cl)c(-c4ccc(F)c5sc(N)c(C#N)c45)c(F)c4nc(OC[C@@]56CCCN5C[C@H](F)C6)nc2c34)c(N)n1", "Subject Of Test": "KRAS WT (Homo sapiens)", "pIC50": "≥ 5.70"}
{"Molecule": "N#Cc1c(N)sc2c(F)ccc(-c3c(Cl)c4c5c(nc(OC[C@@]67CCCN6C[C@H](F)C7)nc5c3F)N(C(c3cccnc3N)C(F)F)CCO4)c12 (single isomer, unassigned)", "Subject Of Test": "KRAS WT (Homo sapiens)", "pIC50": "≥ 5.70"}
{"Molecule": "C[C@H](c1cccnc1N)N1CCOc2c(C(F)(F)F)c(-c3ccc(F)c4sc(N)c(C#N)c34)c(F)c3nc(OC[C@@]45CCCN4CC(CN(C)C)C5)nc1c23 (mixture of isomers)", "Subject Of Test": "KRAS WT (Homo sapiens)", "pIC50": "≥ 5.70"}
